Tested target: folate receptor alpha (FRα) on cells (human, UniProt P15328 25-234)
Sequence (P15328 25-234): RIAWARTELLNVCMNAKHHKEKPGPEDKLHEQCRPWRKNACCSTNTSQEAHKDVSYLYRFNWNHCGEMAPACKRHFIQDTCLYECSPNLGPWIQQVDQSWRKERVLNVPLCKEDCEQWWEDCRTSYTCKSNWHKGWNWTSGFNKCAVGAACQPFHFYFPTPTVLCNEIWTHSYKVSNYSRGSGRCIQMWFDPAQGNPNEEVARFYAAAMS
Protocol details: cell-based or functional assay
IC50, in vitro cytotoxicity (WST-8, 5 days), Igrov-1 cells, ADC less than 7 nM is Y; IC50, in vitro cytotoxicity (WST-8, 5 days), Igrov-1 cells, ADC greater than or equal to 7 nM is N.

### Prompt Determine whether this binder shows IC50, in vitro cytotoxicity (WST-8, 5 days), Igrov-1 cells, ADC lower than 7 nM (ties excluded): Mov19v1.6-GMBS-dAlalAla-PAB-DM1 (conjugate 4b) (antibody, human IgG1, kappa, V domains shown, D-Ala-L-Ala-PAB-DM1 linked through GMBS, about 3.5 DM/Ab) VH: QVQLVQSGAEVVKPGASVKISCKASGYTFTGYFMNWVKQSPGQSLEWIGRIHPYDGDTFYNQKFQGKATLTVDKSSNTAHMELLSLTSEDFAVYYCTRYDGSRAMDYWGQGTTVTVSS VL: DIVLTQSPLSLAVSLGQPAIISCKASQSVSFAGTSLMHWYHQKPGQQPRLLIYRASNLEAGVPDRFSGSGSKTDFTLTISPVEAEDAATYYCQQSREYPYTFGGGTKLEIKR
### Response Y

### Prompt Repeat with conjugate 17g (antibody, human IgG1, kappa, V domains shown, thio-peptide-maytansinoid 14g linked through sulfo-GMBS to antibody amines (Example 4)) VH: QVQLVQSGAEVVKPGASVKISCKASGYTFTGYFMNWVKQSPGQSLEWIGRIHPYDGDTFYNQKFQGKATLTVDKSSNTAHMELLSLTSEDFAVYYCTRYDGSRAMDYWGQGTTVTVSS VL: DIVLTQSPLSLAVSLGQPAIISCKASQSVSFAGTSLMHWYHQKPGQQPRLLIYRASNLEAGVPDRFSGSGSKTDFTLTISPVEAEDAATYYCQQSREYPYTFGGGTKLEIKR
### Response Y

### Prompt Then this binder: conjugate 17i (antibody, human IgG1, kappa, V domains shown, thio-peptide-maytansinoid 14i linked through sulfo-GMBS to antibody amines (Example 4)) VH: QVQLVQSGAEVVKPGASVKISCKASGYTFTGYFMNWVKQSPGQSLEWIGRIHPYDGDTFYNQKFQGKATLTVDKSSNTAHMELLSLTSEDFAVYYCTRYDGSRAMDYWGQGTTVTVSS VL: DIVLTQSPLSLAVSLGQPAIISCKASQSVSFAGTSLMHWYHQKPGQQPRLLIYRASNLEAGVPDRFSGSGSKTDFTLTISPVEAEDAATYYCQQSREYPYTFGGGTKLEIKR
### Response N

### Prompt Another binder to check: conjugate 17h (antibody, human IgG1, kappa, V domains shown, thio-peptide-maytansinoid 14h linked through sulfo-GMBS to antibody amines (Example 4)) VH: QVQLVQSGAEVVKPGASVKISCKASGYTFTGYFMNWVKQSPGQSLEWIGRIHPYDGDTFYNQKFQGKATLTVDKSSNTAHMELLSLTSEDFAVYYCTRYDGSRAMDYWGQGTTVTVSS VL: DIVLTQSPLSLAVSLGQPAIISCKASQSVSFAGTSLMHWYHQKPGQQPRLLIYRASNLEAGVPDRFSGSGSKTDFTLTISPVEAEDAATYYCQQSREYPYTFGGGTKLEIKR
### Response N
